# Tested on: Wolbachia pipientis
# Experiment Notes: Anti-Wolbachia Cell-Based Screen
# Format: functional
# Parameters: scale not given: in the data most compounds retested in dose-response had high values
# Run Parameters: 5 µM
In all, about 48,000 compounds went through this assay and about 13,000 (27%) showed an effect of 50% or more. This is one part of the list.
Property Measured: Percent Effect (%)
Give bare numbers, in %.

Sample answers from the record:
Cc1cc(CC2COc3ccccc3C2)cnc1N (stereo not given) = -19.29
CN(C)[C@@H]1CCN(c2ncc(F)cn2)[C@H]1Cc1cccnc1.O=C(O)C(F)(F)F.O=C(O)C(F)(F)F = -4.235
Cc1nnc(N2C[C@H](OCc3cccnc3)[C@H]3OCCC[C@H]32)s1.O=C(O)C(F)(F)F.O=C(O)C(F)(F)F = -2.334
CN(Cc1cccnc1)[C@@H]1CN(c2ncc(F)cn2)[C@@H]2CCCO[C@H]12 = 115.7
Cc1nnc2n1CCN(CC(=O)Nc1cc(C(C)C)no1)C2 = 1.962
CC(=O)NC1CCN(c2cc(-c3ccccc3)nc3c(C)c(C)nn23)C1 (stereo not given) = -1.812
CC(C)c1cc(NC(=O)CN2CCc3ccccc3C2)on1 = 0.7279
CN(Cc1cccnc1)[C@@H]1CN(c2ccccn2)[C@@H]2CCCO[C@H]12 = 82.23
CC(C)c1cc(NC(=O)CN2CCc3cncnc3C2)on1 = -4.855

Would you kindly look at the next entry?
Lookup result for CC(C)n1cc(S(=O)(=O)NCCc2nnc3ccccn23)cn1 ; measured Percent Effect: -12.48

----------
# System: Wolbachia pipientis
# Experiment Notes: Anti-Wolbachia Cell-Based Screen
# Assay type: functional
# Parameters: scale not given: in the data most compounds retested in dose-response had high values
# Run Parameters: 5 µM
Hit rate of the full screen: of about 48,000 compounds, about 13,000 (27%) showed an effect of 50% or more. The list shows a part of the results.
I'd be grateful if you could share measured Percent Effect for these entries.

These solved cases illustrate the format of a correct answer.
O=C(NCCCn1cccn1)c1csc2c1CCCC2 = -1.067%
CC(C)CN1C(=O)CO[C@@H]2CN(C(=O)CC(F)(F)F)C[C@H]21 = -4.787%
Cc1ccc2cc(CN(C)Cc3ncc[nH]3)c(=O)[nH]c2c1 = -0.6566%
CC(C)(C)SCCN1CC(=O)N2CC[C@@H](O)C[C@H]2C1=O = 105.3%
O=C1[C@@H]2C[C@H](O)CCN2C(=O)CN1CCSc1ccccn1 = 99.26%

Okay, here is my list. What is Percent Effect for each of these?
1. COc1ccc(CN(C)C(=O)CCc2c(C)nc(C)[nH]c2=O)cc1OC
2. O=C(NCCn1ccnc1)c1csc2c1CCCC2
3. O=C(CN1CCOC1=O)N1CCc2nnc(Cc3ccccc3)n2CC1
4. Cc1n[nH]c(C)c1C1CCCN1C(=O)NCCSC(C)(C)C (stereo unspecified)

Data returned:
1: 10.21%; 2: 1.844%; 3: 1.802%; 4: -9.308%

Return reported Percent Effect values for all items listed beneath this line.
1. COCCN1CC(=O)N2CC[C@@H](O)C[C@H]2C1=O
2. CC(CCc1ccccc1)NC(=O)CNCCCN1CCOCC1.O=C(O)C(=O)O (stereo unspecified)

Data returned:
1. 111.7%
2. 7.217%

----------
# System: Wolbachia pipientis
# Experiment Notes: Anti-Wolbachia Cell-Based Screen
# Type: functional
# Set-up: scale not given: in the data most compounds retested in dose-response had high values
# Run Parameters: 5 µM
In all, about 48,000 compounds went through this assay and about 13,000 (27%) showed an effect of 50% or more. The list shows a part of the results.
Property Measured: Percent Effect
The reply must contain the numeric value and, after it, the unit.

CC(C)NS(=O)(=O)c1cc(C(=O)O)cc(-c2ccccc2CN(C)C)c1 = 9.283%
Cc1cnccc1N1CCCN(C(=O)CCn2ccnc2C)CC1 = -14.43%
CC(O)c1cccc(N2CCC3(CC2)Nc2ccccc2NC3=O)n1 (stereo unspecified) = 0.04909%
CC1=NOC(C(=O)N(C)CCCn2nc(C)cc2C)C1 (stereo unspecified) = 25.07%
Cc1cc(C)n(CCCN(C)C(=O)C2COc3ccccc3C2)n1 (stereo unspecified) = -47.38%

Now, please, on to the next compound.
The compound identified as CN(C)C(=O)CCCNc1ncc2c(n1)CCN2c1ccccc1 registered its Percent Effect at -14.16%

----------
# Test system: Wolbachia pipientis
# Experiment Notes: Anti-Wolbachia Cell-Based Screen
# Format: functional
# Design: scale not given: in the data most compounds retested in dose-response had high values
# Run Parameters: 5 µM
Screen size: about 48,000 compounds; about 13,000 (27%) showed an effect of 50% or more. The list shows a part of the results.
Property Measured: Percent Effect (%)
One number for each entry, in %.

CS(=O)(=O)Cc1ccc(NC(=O)Cc2cccnc2)cc1F = 17.36
Cn1c2ncccc2c(=O)n1CC(=O)NCCC1=CCCCC1 = 106.1

Give measured Percent Effect for every item shown.
1. Fc1ccc(F)c(CN2CCC(c3n[nH]c4ncccc34)CC2)c1.O=C(O)CC(O)(CC(=O)O)C(=O)O
2. N#CCCN(Cc1cccnc1)C(=O)c1ccc(-n2cnnn2)cc1
3. Cn1c2ncccc2c(=O)n1CC(=O)NCCc1c(F)cccc1F

Data returned:
[96.71, 12.89, 97.5]

// batch mode: one Percent Effect value per listed entry
1. CN(Cc1ncc(C(C)(C)C)o1)C1CCCN(c2cccnn2)C1 (stereo unspecified)
2. O=C(O)CC(O)(CC(=O)O)C(=O)O.c1cnc2[nH]nc(C3CCN(Cc4ccsc4)CC3)c2c1
3. O=C(CN1CCN(CCO)CC1)NCCc1c(F)cccc1F
4. Cc1ccc(CNC(=O)Cn2c(=O)c3cccnc3n2C)cc1F
5. O=C(CN1CCCCC1Cn1cncn1)NCCC1=CCCCC1 (stereo unspecified)
6. CCc1nc(C)c([C@H]2CN(C)C[C@@H]2C(=O)Nc2ccc3[nH]ncc3c2)[nH]1

Data returned:
[-2.807, 113.3, 0.9837, 105.8, -14.45, 2.29]

----------
# Tested on: Wolbachia pipientis
# Experiment Notes: Anti-Wolbachia Cell-Based Screen
# Type: functional
# Set-up: scale not given: in the data most compounds retested in dose-response had high values
# Run Parameters: 5 µM
Out of some 48,000 compounds screened, about 13,000 (27%) showed an effect of 50% or more. Some of the results follow.
Property Measured: Percent Effect (%)
Numbers only, in %.

Check out these entries, answers already filled in.
Cc1ccsc1C(=O)N1CC(C(=O)NC(C)C)C2(CCOCC2)C1 (configuration not stated) = 2.071
Cc1nc(CN2C(=O)CCC23CCN(c2ncccn2)CC3)cs1.O=C(O)C(F)(F)F = 11.75
CC(C)(NS(C)(=O)=O)c1nc(-c2ccncc2)no1 = 92.68

# batch: return Percent Effect for each of the 7 compounds below
1. CC(C)(NS(C)(=O)=O)c1nc(-c2ccc(F)cc2Cl)no1
2. CCc1nc(NS(=O)(=O)c2ccc(F)cc2Cl)no1
3. O=C(C1CCOc2ccccc21)N1CCOc2ccc(F)cc21 (configuration not stated)
4. CC(C)(NS(C)(=O)=O)c1nc(-c2cccc(Cl)c2)no1
5. CN1C[C@@H](C(=O)NC2CC2)[C@@]2(COc3ccc(F)cc3C2=O)C1
6. O=C(CCN1CCC(C(=O)c2cc(F)ccc2F)CC1)NC1CCCC1
7. Cn1ncc(N2CCC(CNC3CC(c4ccccc4)C3)CC2)cc1=O (configuration not stated)

Data returned:
95.59
2.388
2.761
115.9
74.8
-34
0.2132

Provide Percent Effect for all items below, preserving their order.
1. CC(C)(CNc1ccc2ccc(F)cc2n1)NS(C)(=O)=O
2. CCCN1CCC(NC(=O)c2ccc(F)cc2I)CC1
3. Cc1nc(CN2C(=O)CCC23CCN(Cc2ccoc2)CC3)cs1.O=C(O)C(F)(F)F.O=C(O)C(F)(F)F

Data returned:
[-16.93, 3.516, 99.35]

----------
Exercise: state measured Percent Effect for each of the compounds provided.
# Test system: Wolbachia pipientis
# Experiment Notes: Anti-Wolbachia Cell-Based Screen
# Format: functional
# Design: scale not given: in the data most compounds retested in dose-response had high values
# Run Parameters: 5 µM
Hit rate of the full screen: of about 48,000 compounds, about 13,000 (27%) showed an effect of 50% or more. The list shows a part of the results.

Known Percent Effect results, listed for orientation:
Cc1nc(C2CCCN(C(=O)Cn3ccccc3=O)C2)no1 (centres undefined) = -7.453%
CCNC(=O)C1CCCN1S(=O)(=O)c1sc(=O)[nH]c1C (centres undefined) = -8.251%
CCN(CC)C(=O)c1ccc(CNc2cncc(-n3cccn3)n2)cc1 = 118.2%
CCCS(=O)(=O)CCN1CCOC(c2ccsc2)C1 (centres undefined) = -6.167%
CCc1sc(-c2nnc(CNC(C)Cn3cccn3)o2)cc1C (centres undefined) = -4.192%

Hello, I would appreciate it if you could give Percent Effect for each entry below.
1. CCOc1cccc(CNc2cncc(-n3cccn3)n2)c1
2. CC(=O)NCc1nnc2n1CCN(c1ncnc3c(C)csc13)CC2
3. CC(=O)c1cccc(NC(=O)NCCOCC2CC2)c1
4. Cn1ncc2c(N3CCN(CCC(N)=O)CC3)nc(C3CCCC3)nc21

Data returned:
1: 10.28%; 2: -2.169%; 3: 4.489%; 4: 3.18%
